Sourced from patent US20240101568A1

measurement notes: in vivo
Design: species or system mice
test conditions: male, CD1, mouse, po, 10 mg/kg
reported endpoint: Cmax (ng/mL)
Numbers only, in ng/mL.

Lab note: O=C(Nc1ccc(C(=O)N2CCC(F)(F)C3(CN3)c3cc(Cl)ccc32)cn1)c1ccccc1C(F)(F)F (stereo not shown) gave Cmax of 1260

* * *

tested system: human vasopressin receptor V2R (Homo sapiens, UniProt P30518)
Construct: host or cells: HeLa (lentivirus infection, puromycin selection)
Sequence (P30518 whole entry): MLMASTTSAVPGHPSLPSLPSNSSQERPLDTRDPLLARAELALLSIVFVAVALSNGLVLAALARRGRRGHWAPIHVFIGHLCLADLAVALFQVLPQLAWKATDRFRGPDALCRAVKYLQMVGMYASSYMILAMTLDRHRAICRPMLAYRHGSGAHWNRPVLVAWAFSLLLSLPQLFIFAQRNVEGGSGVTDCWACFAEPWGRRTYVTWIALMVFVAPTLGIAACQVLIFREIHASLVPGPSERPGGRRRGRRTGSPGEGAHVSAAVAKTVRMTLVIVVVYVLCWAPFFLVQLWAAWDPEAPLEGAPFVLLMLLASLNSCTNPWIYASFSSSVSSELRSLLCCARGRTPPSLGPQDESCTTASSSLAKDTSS
measurement notes: IC50 assay for inhibition of vasopressin-induced V2R activation (cAMP increase, HTRF) in HeLa-V2R cells
Assay type: cell-based
test conditions: Human V2R Hela-Stable cell line OE2; AVP 2.25 nM; read-out: IC50 (nM), inhibition of the cAMP increase
Procedure: Experimental Example 1: IC50 Assay for Inhibition of Vasopressin-Induced Vasopressin Receptor V2R Activation by Compounds […] Hela-V2R cells were cultured in a DMEM medium supplemented with 10% fetal bovine serum at 37° C. with 5% CO2 and continuously selected for V2R-expressing cells by adding 2 μg/mL puromycin. […] Sample detection: fluorescence intensity was measured at 615 nm and 665 nm using the HTRF method in the Envision plate reader. […]
Task for the reader: assign each of the following molecules its reported IC50.
Answers are plain numbers, in nM.

Recorded results for 5 molecules are shown here.
O=C(Nc1ccc(C(=O)N2CCCC3(CN3)c3cc(Cl)ccc32)cn1)c1ccccc1C(F)(F)F (stereo not drawn)
4.67
Cc1ccccc1C(=O)Nc1ccc(C(=O)N2CCCC3(CCC3)c3cc(Cl)ccc32)c(C)c1
10.4
Cc1cc(NC(=O)c2ccccc2Cl)ccc1C(=O)N1CCCC2(CN2)c2cc(Cl)ccc21 (stereo not drawn)
5.01
O=C(Nc1ccc(C(=O)N2CCC(F)(F)C3(CN3)c3cc(Cl)ccc32)cn1)c1ccccc1Cl (stereo not drawn)
4.51
Cc1ccccc1C(=O)Nc1ccc(C(=O)N2CCC(F)(F)C3(CN3)c3cc(Cl)ccc32)cn1 (stereo not drawn)
5.54

Provide reported IC50 for each item, in the same order as listed.
1. Cc1ccccc1C(=O)Nc1ccc(C(=O)N2CCCC3(CN3)c3cc(Cl)ccc32)c(C)c1 (stereo not drawn)
2. Cc1ccccc1C(=O)Nc1ccc(C(=O)N2CCCC3(CC3)c3cc(Cl)ccc32)c(C)c1
3. Cc1ccccc1C(=O)Nc1ccc(C(=O)N2CCCC3(CN3)c3cc(Cl)ccc32)cn1 (stereo not drawn)
4. Cc1ccccc1C(=O)Nc1ccc(C(=O)N2CCC(F)(F)C3(CN3)c3cc(Cl)ccc32)c(C)c1 (stereo not drawn)

OUTPUT:
4.88
11.2
3.14
9.35
